These measurements were taken from patent US20250297032A1.

# TEST TARGET: T1, human FAPα-His tag (Sino biological) (human, UniProt Q12884 26-760)
# T1 construct: Bought protein; also called human FAPα-His protein; not shown: His tag
# T1 sequence (looked up): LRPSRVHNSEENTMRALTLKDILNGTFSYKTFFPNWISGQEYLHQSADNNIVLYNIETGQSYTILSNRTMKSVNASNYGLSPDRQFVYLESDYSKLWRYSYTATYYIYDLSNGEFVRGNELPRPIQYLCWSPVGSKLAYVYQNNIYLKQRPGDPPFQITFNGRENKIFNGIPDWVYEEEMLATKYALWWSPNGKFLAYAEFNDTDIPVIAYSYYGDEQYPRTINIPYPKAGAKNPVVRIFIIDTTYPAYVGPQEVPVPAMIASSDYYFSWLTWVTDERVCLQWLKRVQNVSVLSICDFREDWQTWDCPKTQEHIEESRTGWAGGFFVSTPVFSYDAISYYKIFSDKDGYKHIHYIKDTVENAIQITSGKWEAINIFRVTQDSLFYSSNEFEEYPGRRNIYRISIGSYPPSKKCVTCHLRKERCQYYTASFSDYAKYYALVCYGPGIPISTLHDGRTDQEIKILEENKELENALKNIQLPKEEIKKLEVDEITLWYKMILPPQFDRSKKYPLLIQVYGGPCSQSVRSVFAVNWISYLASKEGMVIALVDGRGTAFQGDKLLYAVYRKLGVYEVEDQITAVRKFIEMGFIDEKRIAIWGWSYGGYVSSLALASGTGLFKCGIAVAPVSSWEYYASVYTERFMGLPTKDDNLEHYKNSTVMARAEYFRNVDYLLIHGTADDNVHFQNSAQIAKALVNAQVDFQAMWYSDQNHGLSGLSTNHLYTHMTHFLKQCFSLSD
# METHOD NOTES: ELISA, coated human FAPα-His
MEASURED PARAMETER: EC50 (ng/mL)
Quick note: give the figure in ng/mL, leave out the unit.

| BINDER | UOM | EC50 |
| --- | --- | --- |
| J59 (antibody, V domains shown, Tested as a mAb) VH: QVQLLESGGGVVQPGRSLRLSCAASGFTFSSYGMHWVRQAPGKGLEWVAVISYDGSNKYYADSVKGRFTISRDNSKNTLYLQMNSLRADDTAVYYCARESYTGLGSFLHWGQGTLVTVSA VL: NIQLTQSPSSLSASVGDRVTITCRASQTISNYLNWYQQKPGKAPKLLISAASSLQGGVPSRFSGSGSGTDFTLAISSLQPEDSATYYCQYWGTFGQGTKLEIK | ng/mL | 3.94 |
| G52 (antibody, V domains shown, Tested as a mAb; also called FAP-G52; FAP-G52-Bio (biotin-conjugated form)) VH: EVQLLESGGDLVQPGGSLRLSCAASGFTFSSYAMSWVRQAPGKGLEWVSGISNGGDSIAYADSVKGRFTVFRDNAKNTLYLQMNSLRAEDTAIYYCARGNYYAHDDWGQGTLVTVSA VL: DIQLTQSPSSVSASVGDRVTITCRASQGVGSWLAWYQQKPGKPPKLLIYAASSLQSGVPSRFSGSGSGTDFTLTISSLQPEDFATYYCQQANSFPLTFGGGTKVEIK | ng/mL | 9.48 |

Q: Look up EC50 for this binder: G14 (antibody, V domains shown, Full human antibody from a Fab phage library; Tested as a mAb (detected with anti-human IgG, captured on Protein A); also called FAP-G14; FAP-G14-Bio (biotin-conjugated form)) VH: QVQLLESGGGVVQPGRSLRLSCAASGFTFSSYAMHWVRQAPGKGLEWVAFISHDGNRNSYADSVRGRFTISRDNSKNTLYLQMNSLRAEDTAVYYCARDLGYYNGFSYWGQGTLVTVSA VL: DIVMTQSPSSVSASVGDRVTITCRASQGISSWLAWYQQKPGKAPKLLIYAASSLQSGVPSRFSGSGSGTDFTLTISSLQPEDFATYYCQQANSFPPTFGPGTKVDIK
A: 4.64
